assay: cell viability by Viacount, YB5; format: cell-based; details: human, YB5 colon cancer cells; 24 and 72 h, 50 nM to 50 µM, highest doses; read-out: cell viability relative to untreated cells
reportedMetric: viability

Query: Entry N#Cc1cn([C@@H]2O[C@H](CO)[C@@H](O)[C@H]2O)c2ncnc(N)c12 [toyocamycin, 7-Deaza-7-cyanoadenosine] : reported viability = ?
Result: > 50%

====

assay: cell viability by Viacount, HCT116; format: cell-based; conditions: human, HCT116 colon cancer cells; 24 and 72 h, 50 nM to 50 µM, highest doses; read-out: cell viability relative to untreated cells
reportedMetric: viability

Query: Entry N#Cc1cn([C@@H]2O[C@H](CO)[C@@H](O)[C@H]2O)c2ncnc(N)c12 : reported viability = ?
Result: > 50%

====

biological target: CDK6/Cyclin D3 (Homo sapiens, UniProt Q00534); assay: in vitro kinase assay CDK6/Cyclin D3 (Kinase-Glo Plus)
Sequence (Q00534 whole entry, one chain of several): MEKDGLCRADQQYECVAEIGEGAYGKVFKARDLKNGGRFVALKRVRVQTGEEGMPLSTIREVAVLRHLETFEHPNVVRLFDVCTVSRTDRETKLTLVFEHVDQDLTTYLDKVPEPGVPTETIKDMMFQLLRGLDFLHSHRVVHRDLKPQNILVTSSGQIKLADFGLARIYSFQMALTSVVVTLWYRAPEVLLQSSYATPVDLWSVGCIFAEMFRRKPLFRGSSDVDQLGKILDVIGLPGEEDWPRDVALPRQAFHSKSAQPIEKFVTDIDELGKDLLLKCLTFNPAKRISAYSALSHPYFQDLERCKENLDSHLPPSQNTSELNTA
reportedMetric: IC50

Query: Entry N#Cc1cn([C@@H]2O[C@H](CO)[C@@H](O)[C@H]2O)c2ncnc(N)c12 : reported IC50 = ?
Result: > 10 µM

====

molecular target: CDK4/Cyclin D3 (Homo sapiens, UniProt P11802); assay: in vitro kinase assay CDK4/Cyclin D3 (Kinase-Glo Plus)
Sequence (P11802 whole entry): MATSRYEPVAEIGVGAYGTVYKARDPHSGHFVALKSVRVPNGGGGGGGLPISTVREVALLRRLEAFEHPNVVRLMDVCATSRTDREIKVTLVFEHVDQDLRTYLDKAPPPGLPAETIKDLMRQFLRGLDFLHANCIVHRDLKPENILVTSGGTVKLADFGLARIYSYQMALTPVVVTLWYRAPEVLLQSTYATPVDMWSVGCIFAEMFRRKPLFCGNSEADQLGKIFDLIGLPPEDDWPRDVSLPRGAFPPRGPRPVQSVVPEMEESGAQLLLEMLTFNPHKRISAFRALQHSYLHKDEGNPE
Sequence (P30281 whole entry partner): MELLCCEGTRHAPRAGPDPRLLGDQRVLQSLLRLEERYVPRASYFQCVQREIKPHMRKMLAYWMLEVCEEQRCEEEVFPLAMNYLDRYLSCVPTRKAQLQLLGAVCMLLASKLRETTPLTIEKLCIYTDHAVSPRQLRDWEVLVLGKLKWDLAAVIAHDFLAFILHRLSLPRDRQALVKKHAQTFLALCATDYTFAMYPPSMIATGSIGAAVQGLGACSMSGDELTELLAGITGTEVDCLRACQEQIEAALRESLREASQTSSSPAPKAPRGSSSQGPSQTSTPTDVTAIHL
reportedMetric: IC50 (µM)
Answers are plain numbers, in µM.

Query: Entry N#Cc1cn([C@@H]2O[C@H](CO)[C@@H](O)[C@H]2O)c2ncnc(N)c12 : reported IC50 = ?
Result: 15

====

target: T1, CDK9/Cyclin T1 (Homo sapiens, UniProt P50750); assay: in vitro kinase assay CDK9/Cyclin T1 (Kinase-Glo Plus luminescence); format: biochemical; conditions: IC50, as quoted in docking section
T1 construct: purchased BPS Bioscience
T1 sequence (P50750 whole entry): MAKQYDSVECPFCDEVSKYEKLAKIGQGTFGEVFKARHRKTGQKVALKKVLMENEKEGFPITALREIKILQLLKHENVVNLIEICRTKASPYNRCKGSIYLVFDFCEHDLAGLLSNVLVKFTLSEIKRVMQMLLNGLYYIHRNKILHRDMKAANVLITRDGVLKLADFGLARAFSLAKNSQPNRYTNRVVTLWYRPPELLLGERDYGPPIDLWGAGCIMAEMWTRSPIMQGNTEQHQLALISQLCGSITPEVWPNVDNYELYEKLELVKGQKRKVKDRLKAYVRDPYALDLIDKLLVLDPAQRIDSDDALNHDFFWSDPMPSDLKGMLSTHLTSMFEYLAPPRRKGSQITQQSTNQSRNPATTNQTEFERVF
T1 sequence (O60563 whole entry partner): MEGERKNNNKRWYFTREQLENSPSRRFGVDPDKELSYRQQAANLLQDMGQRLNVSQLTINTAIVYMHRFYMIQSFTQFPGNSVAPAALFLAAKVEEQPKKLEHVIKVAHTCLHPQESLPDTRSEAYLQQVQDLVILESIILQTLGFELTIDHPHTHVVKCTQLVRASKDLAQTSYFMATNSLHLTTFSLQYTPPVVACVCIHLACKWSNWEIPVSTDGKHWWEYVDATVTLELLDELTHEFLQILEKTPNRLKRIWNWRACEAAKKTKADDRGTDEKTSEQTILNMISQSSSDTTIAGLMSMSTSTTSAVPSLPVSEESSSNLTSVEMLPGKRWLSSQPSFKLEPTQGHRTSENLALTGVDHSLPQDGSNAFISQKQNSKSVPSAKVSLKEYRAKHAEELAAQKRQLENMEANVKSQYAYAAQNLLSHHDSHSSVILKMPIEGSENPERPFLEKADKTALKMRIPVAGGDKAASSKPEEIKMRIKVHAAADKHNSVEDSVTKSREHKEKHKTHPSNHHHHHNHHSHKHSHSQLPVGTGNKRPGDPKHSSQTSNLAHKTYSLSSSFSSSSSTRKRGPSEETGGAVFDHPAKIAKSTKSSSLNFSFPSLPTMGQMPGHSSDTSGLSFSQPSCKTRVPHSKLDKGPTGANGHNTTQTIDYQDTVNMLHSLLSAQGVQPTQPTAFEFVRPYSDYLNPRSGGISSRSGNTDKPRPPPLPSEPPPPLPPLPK
reportedMetric: pIC50
One number for each entry, as −log10 of the molar value.

Query: Entry N#Cc1cn([C@@H]2O[C@H](CO)[C@@H](O)[C@H]2O)c2ncnc(N)c12 : reported pIC50 = ?
Result: 7.10
